Target: BMP-12 (Homo sapiens)
Sequence (Q7Z4P5 322-450): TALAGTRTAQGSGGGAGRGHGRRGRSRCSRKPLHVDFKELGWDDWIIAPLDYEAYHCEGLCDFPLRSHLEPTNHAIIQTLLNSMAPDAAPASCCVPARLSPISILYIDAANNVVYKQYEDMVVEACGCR
Test: Filter-plate binding and elution of BMP-12 on peptide-coupled affinity resins
Settings: loaded in condition 2: 50 mM Acetic Acid, 0.1 M NaCl, pH 4.0
No end group written: not given here.
test.readout: Yield (BMP-12 recovered from resin) (%)
Unit % implied. Number only.

Previously resolved entries follow.
| substance | assayed.system | test.readout | u | observed.measurement |
| --- | --- | --- | --- | --- |
| Ac-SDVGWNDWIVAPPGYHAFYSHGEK [Peptide 751] | BMP-12 (Homo sapiens) | Yield (BMP-12 recovered from resin) | % | 97 |
| Ac-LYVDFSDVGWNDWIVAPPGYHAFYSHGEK [Peptide 747] | BMP-12 (Homo sapiens) | Yield (BMP-12 recovered from resin) | % | 68 |
| Ac-VAPPGYHAFYSHGEK [Peptide 745] | BMP-12 (Homo sapiens) | Yield (BMP-12 recovered from resin) | % | 103 |
| Ac-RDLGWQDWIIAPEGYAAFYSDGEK [Peptide 748] | BMP-12 (Homo sapiens) | Yield (BMP-12 recovered from resin) | % | 84 |
| Ac-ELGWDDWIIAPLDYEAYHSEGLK [Peptide 749] | BMP-12 (Homo sapiens) | Yield (BMP-12 recovered from resin) | % | 88 |

Yield (BMP-12 recovered from resin) reported for this substance Ac-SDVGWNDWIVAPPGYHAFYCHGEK [Peptide 750] : 93

The substance identified as Ac-LYV**SDVGWNDWIVK (Ac-LYVSDVGWNDWIVK; not fully specified (residue 3); printed as Ac-LYV**SDVGWNDWIVK) [Peptide 746] registered its Yield (BMP-12 recovered from resin) at 88
